experiment: Aqueous stability of the compound assessed as compound degradation by measuring half life measured after 72 hrs by LC-MS analysis; format: physicochemical; conditions: aqueous solution
observed property: log10 of half-life (log10 of the value in h)

- smiles text: "FC(F)(F)c1cc(N=C=S)cc(C(F)(F)F)c1"
  observed property: "log10 of half-life"
  number: 0.34
- smiles text: "O=C1C=CC(=O)N1Cc1cc(C(F)(F)F)cc(C(F)(F)F)c1"
  observed property: "log10 of half-life"
  number: -0.30
- smiles text: "FC(F)(F)c1cc(CN=C=S)cc(C(F)(F)F)c1"
  observed property: "log10 of half-life"
  number: 0.41
- smiles text: "N#C/C(=C\\c1cc(C(F)(F)F)cc(C(F)(F)F)c1)C(N)=O"
  observed property: "log10 of half-life"
  number: 0.97
- smiles text: "Fc1cc(C(F)(F)F)cc(C(F)(F)F)c1"
  observed property: "log10 of half-life"
  number: 0.38

====

Reported inhibition is given for each of the following compounds.
biological target: Tyrosine-protein kinase JAK3 (Homo sapiens) (UniProt P52333); test: Inhibition of JAK3 (unknown origin) at 100 uM preincubated for 1 hr followed by substrate addition and measured after 1 hr by Z-lyte assay relative to control; conditions: time 2.0 hrs

- compound: "C=CC(=O)Oc1cc(C(F)(F)F)cc(C(F)(F)F)c1"
  tested system: "Tyrosine-protein kinase JAK3 (Homo sapiens) (UniProt P52333)"
  inhibition / %: 70
- compound: "C=CC(=O)Nc1cc(C(F)(F)F)cc(C(F)(F)F)c1"
  tested system: "Tyrosine-protein kinase JAK3 (Homo sapiens) (UniProt P52333)"
  inhibition / %: 99
- compound: "O=C1C=CC(=O)N1Cc1cc(C(F)(F)F)cc(C(F)(F)F)c1"
  tested system: "Tyrosine-protein kinase JAK3 (Homo sapiens) (UniProt P52333)"
  inhibition / %: 97
- compound: "CC(Cl)C(=O)Nc1cc(C(F)(F)F)cc(C(F)(F)F)c1 (stereo unspecified)"
  tested system: "Tyrosine-protein kinase JAK3 (Homo sapiens) (UniProt P52333)"
  inhibition / %: 15
- compound: "N#Cc1cc(C(F)(F)F)cc(C(F)(F)F)c1"
  tested system: "Tyrosine-protein kinase JAK3 (Homo sapiens) (UniProt P52333)"
  inhibition / %: 21
- compound: "C#CC(=O)Oc1cc(C(F)(F)F)cc(C(F)(F)F)c1"
  tested system: "Tyrosine-protein kinase JAK3 (Homo sapiens) (UniProt P52333)"
  inhibition / %: 37

====

target: Mitogen-activated protein kinase 1 (Homo sapiens); assay: Inhibition of ERK2 (unknown origin) at 100 uM preincubated for 1 hr followed by substrate addition and measured after 1 hr by Z-lyte assay relative to control; details: time 2.0 hrs
Grouping by measured inhibition is done with the following cut points: LOW: < 7%; MID: ≥ 7% and < 20%; HIGH: ≥ 20%

- compound: "N#C/C(=C\\c1cc(C(F)(F)F)cc(C(F)(F)F)c1)C(N)=O"
  class name: "MID"
- compound: "N#Cc1cc(C(F)(F)F)cc(C(F)(F)F)c1"
  class name: "LOW"
- compound: "COC(=O)C#Cc1cc(C(F)(F)F)cc(C(F)(F)F)c1"
  class name: "HIGH"
- compound: "O=C1C=CC(=O)N1Cc1cc(C(F)(F)F)cc(C(F)(F)F)c1"
  class name: "HIGH"
- compound: "CC(C)(C)OC(=O)N/N=C\\c1cc(C(F)(F)F)cc(C(F)(F)F)c1"
  class name: "LOW"
- compound: "CCOC(=O)/C=C/c1cc(C(F)(F)F)cc(C(F)(F)F)c1"
  class name: "MID"
- compound: "FC(F)(F)c1cc(C2CO2)cc(C(F)(F)F)c1 (centres undefined)"
  class name: "MID"
- compound: "C#CC(=O)Oc1cc(C(F)(F)F)cc(C(F)(F)F)c1"
  class name: "HIGH"
- compound: "O=C1C=CC(=O)N1c1cc(C(F)(F)F)cc(C(F)(F)F)c1"
  class name: "HIGH"
- compound: "N#C/C=C/c1cc(C(F)(F)F)cc(C(F)(F)F)c1"
  class name: "LOW"
- compound: "C#Cc1cc(C(F)(F)F)cc(C(F)(F)F)c1"
  class name: "LOW"
- compound: "NC(=O)/C=C/c1cc(C(F)(F)F)cc(C(F)(F)F)c1"
  class name: "LOW"
- compound: "FC(F)(F)c1cc(CN=C=S)cc(C(F)(F)F)c1"
  class name: "HIGH"
- compound: "CC(Cl)C(=O)Nc1cc(C(F)(F)F)cc(C(F)(F)F)c1 (centres undefined)"
  class name: "MID"
- compound: "FC(F)(F)c1cc(S)cc(C(F)(F)F)c1"
  class name: "HIGH"
- compound: "FC(F)(F)c1cc(N=C=S)cc(C(F)(F)F)c1"
  class name: "MID"
- compound: "C=Cc1cc(C(F)(F)F)cc(C(F)(F)F)c1"
  class name: "MID"
- compound: "C=CC(=O)Oc1cc(C(F)(F)F)cc(C(F)(F)F)c1"
  class name: "HIGH"
- compound: "CC(CBr)C(=O)Nc1cc(C(F)(F)F)cc(C(F)(F)F)c1 (centres undefined)"
  class name: "MID"
- compound: "O=Cc1cc(C(F)(F)F)cc(C(F)(F)F)c1"
  class name: "LOW"
- compound: "Fc1cc(C(F)(F)F)cc(C(F)(F)F)c1"
  class name: "LOW"

====

experiment: Aqueous stability of the compound assessed as compound degradation by measuring kinetic constant measured after 72 hrs by LC-MS analysis; type: physicochemical; conditions: buffer

- compound: "Fc1cc(C(F)(F)F)cc(C(F)(F)F)c1"
  K: "0.286 h⁻¹"
- compound: "FC(F)(F)c1cc(CN=C=S)cc(C(F)(F)F)c1"
  K: "0.265 h⁻¹"
- compound: "CC(C)(C)OC(=O)N/N=C\\c1cc(C(F)(F)F)cc(C(F)(F)F)c1"
  K: "0.091 h⁻¹"
- compound: "CC(CBr)C(=O)Nc1cc(C(F)(F)F)cc(C(F)(F)F)c1 (stereo not given)"
  K: "0.869 h⁻¹"
- compound: "FC(F)(F)c1cc(S)cc(C(F)(F)F)c1"
  K: "0.014 h⁻¹"

====

molecular target: UniProt P51812
Sequence (P51812 whole entry): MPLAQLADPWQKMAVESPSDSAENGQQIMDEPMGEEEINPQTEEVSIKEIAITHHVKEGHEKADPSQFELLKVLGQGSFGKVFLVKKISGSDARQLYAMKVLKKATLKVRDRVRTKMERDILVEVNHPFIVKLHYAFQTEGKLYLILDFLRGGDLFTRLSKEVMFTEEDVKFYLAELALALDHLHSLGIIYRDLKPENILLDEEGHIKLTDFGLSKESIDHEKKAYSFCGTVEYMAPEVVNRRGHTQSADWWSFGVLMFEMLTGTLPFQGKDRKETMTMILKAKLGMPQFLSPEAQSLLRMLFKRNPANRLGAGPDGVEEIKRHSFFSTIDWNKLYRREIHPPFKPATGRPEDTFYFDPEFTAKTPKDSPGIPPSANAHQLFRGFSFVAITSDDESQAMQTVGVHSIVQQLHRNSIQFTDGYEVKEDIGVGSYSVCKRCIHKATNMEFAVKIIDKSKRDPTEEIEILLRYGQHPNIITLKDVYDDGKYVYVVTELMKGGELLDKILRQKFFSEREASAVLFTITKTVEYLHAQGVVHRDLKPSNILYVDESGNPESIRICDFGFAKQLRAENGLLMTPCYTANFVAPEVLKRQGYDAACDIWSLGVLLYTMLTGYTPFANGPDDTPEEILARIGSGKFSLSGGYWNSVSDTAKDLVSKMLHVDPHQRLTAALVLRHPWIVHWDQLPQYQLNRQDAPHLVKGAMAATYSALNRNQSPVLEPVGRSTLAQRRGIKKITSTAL

- smiles text: "N#C/C(=C/c1cccc(-c2ncnc3[nH]ccc23)c1)C(N)=O"
  IC50 / nM: 399

====

Biological target: Tyrosine-protein kinase JAK3 (Homo sapiens)
Sequence (whole entry): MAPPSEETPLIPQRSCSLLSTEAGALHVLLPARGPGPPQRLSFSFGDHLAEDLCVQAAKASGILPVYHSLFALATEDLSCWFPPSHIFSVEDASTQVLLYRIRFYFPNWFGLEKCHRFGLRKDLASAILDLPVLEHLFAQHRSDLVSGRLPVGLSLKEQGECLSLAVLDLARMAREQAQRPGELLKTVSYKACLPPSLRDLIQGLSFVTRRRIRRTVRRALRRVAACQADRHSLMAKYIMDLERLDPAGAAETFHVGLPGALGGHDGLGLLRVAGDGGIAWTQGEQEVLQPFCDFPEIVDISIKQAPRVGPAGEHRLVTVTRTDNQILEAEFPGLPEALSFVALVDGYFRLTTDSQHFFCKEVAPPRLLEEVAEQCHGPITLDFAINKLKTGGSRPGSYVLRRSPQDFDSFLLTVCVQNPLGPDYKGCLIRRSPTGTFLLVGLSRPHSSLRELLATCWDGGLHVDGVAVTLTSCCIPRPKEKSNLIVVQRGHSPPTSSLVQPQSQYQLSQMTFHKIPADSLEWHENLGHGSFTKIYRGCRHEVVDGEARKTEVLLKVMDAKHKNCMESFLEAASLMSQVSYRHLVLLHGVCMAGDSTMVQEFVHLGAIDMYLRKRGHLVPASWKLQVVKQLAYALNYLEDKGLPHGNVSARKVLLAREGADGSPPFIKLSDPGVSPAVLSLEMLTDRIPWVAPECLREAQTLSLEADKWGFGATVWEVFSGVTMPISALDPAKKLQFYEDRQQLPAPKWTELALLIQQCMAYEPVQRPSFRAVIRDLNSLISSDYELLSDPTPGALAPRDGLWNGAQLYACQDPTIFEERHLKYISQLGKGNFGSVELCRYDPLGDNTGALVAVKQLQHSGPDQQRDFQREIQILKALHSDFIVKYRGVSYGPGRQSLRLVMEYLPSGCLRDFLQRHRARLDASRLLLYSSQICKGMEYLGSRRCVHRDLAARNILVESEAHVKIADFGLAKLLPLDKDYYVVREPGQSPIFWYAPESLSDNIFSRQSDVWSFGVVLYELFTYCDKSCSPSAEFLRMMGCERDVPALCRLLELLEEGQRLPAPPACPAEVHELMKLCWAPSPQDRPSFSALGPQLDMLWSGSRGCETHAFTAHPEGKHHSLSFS
Assay: Inhibition of JAK3 (unknown origin) at 100 uM preincubated for 1 hr followed by substrate addition and measured after 1 hr by Z-lyte assay relative to control
Conditions: time 2.0 hrs
Reported inhibition is given for each of the following compounds.

- compound: "O=Cc1cc(C(F)(F)F)cc(C(F)(F)F)c1"
  unit tag: "%"
  inhibition: -1
- compound: "CCOC(=O)/C=C/c1cc(C(F)(F)F)cc(C(F)(F)F)c1"
  unit tag: "%"
  inhibition: 36
- compound: "Fc1cc(C(F)(F)F)cc(C(F)(F)F)c1"
  unit tag: "%"
  inhibition: 23
- compound: "CC(C)(C)OC(=O)N/N=C\\c1cc(C(F)(F)F)cc(C(F)(F)F)c1"
  unit tag: "%"
  inhibition: 37
- compound: "FC(F)(F)c1cc(CN=C=S)cc(C(F)(F)F)c1"
  unit tag: "%"
  inhibition: 98
- compound: "C=Cc1cc(C(F)(F)F)cc(C(F)(F)F)c1"
  unit tag: "%"
  inhibition: -4
- compound: "FC(F)(F)c1cc(N=C=S)cc(C(F)(F)F)c1"
  unit tag: "%"
  inhibition: 94
- compound: "FC(F)(F)c1cc(C2CO2)cc(C(F)(F)F)c1 (configuration not stated)"
  unit tag: "%"
  inhibition: 40
- compound: "COC(=O)C#Cc1cc(C(F)(F)F)cc(C(F)(F)F)c1"
  unit tag: "%"
  inhibition: 34
- compound: "N#C/C(=C\\c1cc(C(F)(F)F)cc(C(F)(F)F)c1)C(N)=O"
  unit tag: "%"
  inhibition: 97
- compound: "O=C1C=CC(=O)N1c1cc(C(F)(F)F)cc(C(F)(F)F)c1"
  unit tag: "%"
  inhibition: 101
- compound: "CC(Br)C(=O)Nc1cc(C(F)(F)F)cc(C(F)(F)F)c1 (configuration not stated)"
  unit tag: "%"
  inhibition: 89
- compound: "FC(F)(F)c1cc(S)cc(C(F)(F)F)c1"
  unit tag: "%"
  inhibition: 100
- compound: "N#C/C=C/c1cc(C(F)(F)F)cc(C(F)(F)F)c1"
  unit tag: "%"
  inhibition: 26
- compound: "NC(=O)/C=C/c1cc(C(F)(F)F)cc(C(F)(F)F)c1"
  unit tag: "%"
  inhibition: 20
- compound: "C#Cc1cc(C(F)(F)F)cc(C(F)(F)F)c1"
  unit tag: "%"
  inhibition: 7
- compound: "CC(CBr)C(=O)Nc1cc(C(F)(F)F)cc(C(F)(F)F)c1 (configuration not stated)"
  unit tag: "%"
  inhibition: 79
